assay: Inhibition of glycogen synthase kinase-3 beta (n=13)
reportedProperty: IC50 (nM)
Answer in nM, number only, no unit symbol.

In one line, give reported IC50 of the entry C[C@H](C(=O)Nc1cc(C2CC2)[nH]n1)c1ccc(N2CCCC2=O)cc1 .
732

====

biological target: Cyclin-dependent kinase 5/CDK5 activator 1 (Homo sapiens, UniProt Q00535); test: Inhibition of cyclin-dependent kinase 5 p25 alpha (n=4); assay type: protein-complex assay
Sequence (Q00535 whole entry): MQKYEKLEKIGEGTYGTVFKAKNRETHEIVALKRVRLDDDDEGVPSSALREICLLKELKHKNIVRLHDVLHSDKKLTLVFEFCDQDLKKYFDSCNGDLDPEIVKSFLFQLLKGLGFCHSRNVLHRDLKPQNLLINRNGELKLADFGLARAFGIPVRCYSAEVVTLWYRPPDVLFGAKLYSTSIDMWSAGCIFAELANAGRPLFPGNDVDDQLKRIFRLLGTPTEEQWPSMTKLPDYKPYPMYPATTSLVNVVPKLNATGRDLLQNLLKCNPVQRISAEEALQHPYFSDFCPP
Sequence (Q15078 whole entry, further chain): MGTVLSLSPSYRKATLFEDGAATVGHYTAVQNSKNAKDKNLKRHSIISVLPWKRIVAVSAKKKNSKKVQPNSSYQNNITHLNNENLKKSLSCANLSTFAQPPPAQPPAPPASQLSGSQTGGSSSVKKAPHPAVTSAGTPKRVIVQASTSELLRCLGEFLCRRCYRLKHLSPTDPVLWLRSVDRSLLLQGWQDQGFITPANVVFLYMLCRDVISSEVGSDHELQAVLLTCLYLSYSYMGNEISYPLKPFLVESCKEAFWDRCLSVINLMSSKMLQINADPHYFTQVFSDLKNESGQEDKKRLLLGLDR
reportedProperty: IC50

In one line, give reported IC50 of the entry C[C@H](C(=O)Nc1cc(C2CC2)[nH]n1)c1ccc(N2CCOC2=O)cc1 .
57 nM

====

target: Cyclin-dependent kinase 4/cyclin D1 (Homo sapiens, UniProt P11802); assay: Inhibition of cyclin-dependent kinase 4-cyclin D1 (n=4); type: protein-complex assay
Sequence (P11802 whole entry): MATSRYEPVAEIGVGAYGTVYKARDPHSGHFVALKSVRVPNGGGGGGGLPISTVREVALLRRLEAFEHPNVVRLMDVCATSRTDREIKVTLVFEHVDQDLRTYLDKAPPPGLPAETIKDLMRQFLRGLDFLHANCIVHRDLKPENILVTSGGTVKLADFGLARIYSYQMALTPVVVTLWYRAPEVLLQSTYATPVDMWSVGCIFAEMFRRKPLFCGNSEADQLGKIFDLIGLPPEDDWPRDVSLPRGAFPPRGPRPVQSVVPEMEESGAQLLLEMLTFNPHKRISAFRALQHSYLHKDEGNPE
Sequence (P24385 whole entry, further chain): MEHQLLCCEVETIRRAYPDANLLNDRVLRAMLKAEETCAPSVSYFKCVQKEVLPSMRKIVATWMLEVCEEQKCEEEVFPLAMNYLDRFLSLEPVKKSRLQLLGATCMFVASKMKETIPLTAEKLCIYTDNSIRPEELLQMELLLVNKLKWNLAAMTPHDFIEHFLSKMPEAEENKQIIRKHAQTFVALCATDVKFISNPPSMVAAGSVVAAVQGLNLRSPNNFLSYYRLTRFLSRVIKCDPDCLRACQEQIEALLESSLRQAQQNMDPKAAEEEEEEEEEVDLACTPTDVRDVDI
reportedProperty: IC50

In one line, give reported IC50 of the entry C[C@H](C(=O)Nc1cc(C2CC2)[nH]n1)c1ccc(N2CCCC2=O)cc1 .
> 10 µM

Recorded values, source ChEMBL document CHEMBL1143606.
